# System: Staphylococcus aureus Sa2 (MRSA, cystic fibrosis isolate)
# Assay Overview: growth reduction vs untreated control (viable cell count); higher = stronger antibacterial activity; extreme values may be limits of the assay
# Measurement Parameters: 0.1 mM; 24 h

Compound: OC1(c2ccc(Cl)c(C(F)(F)F)c2)CCN(CCCC(c2ccc(F)cc2)c2ccc(F)cc2)CC1
Target Or Test System: Staphylococcus aureus Sa2 (MRSA, cystic fibrosis isolate)
growth reduction [%]: 100
//
Compound: CCCCCCCCCCCCCCCCCCOP(=O)([O-])OC1CC[N+](C)(C)CC1
Target Or Test System: Staphylococcus aureus Sa2 (MRSA, cystic fibrosis isolate)
growth reduction [%]: 100
//
Compound: COc1cc(C(=O)NS(=O)(=O)c2ccccc2C)ccc1Cc1cn(C)c2ccc(NC(=O)OC3CCCC3)cc12
Target Or Test System: Staphylococcus aureus Sa2 (MRSA, cystic fibrosis isolate)
growth reduction [%]: 100
//
Compound: Cc1cc(C2CCCCC2)n(O)c(=O)c1 [Ciclopirox]
Target Or Test System: Staphylococcus aureus Sa2 (MRSA, cystic fibrosis isolate)
growth reduction [%]: 100
//
Compound: NC(N)=NC(=O)c1nc(Cl)c(N2CCCCCC2)nc1N [5-(N,N-Hexamethylene)-amiloride]
Target Or Test System: Staphylococcus aureus Sa2 (MRSA, cystic fibrosis isolate)
growth reduction [%]: 100
//
Compound: COc1cccc(-c2ccc(NC(=O)C3=C(C(=O)O)CCC3)c(F)c2)c1
Target Or Test System: Staphylococcus aureus Sa2 (MRSA, cystic fibrosis isolate)
growth reduction [%]: 99
//
Compound: NC(=O)C1=C(O)[C@@]2(O)C(=O)C3=C(O)c4c(O)cccc4C[C@H]3C[C@H]2CC1=O [Incyclinide]
Target Or Test System: Staphylococcus aureus Sa2 (MRSA, cystic fibrosis isolate)
growth reduction [%]: 100
//
Compound: CCN1CCN(Cc2ccc(-c3cc4c(N[C@H](C)c5ccccc5)ncnc4[nH]3)cc2)CC1
Target Or Test System: Staphylococcus aureus Sa2 (MRSA, cystic fibrosis isolate)
growth reduction [%]: 100
//
Compound: CS(=O)(=O)c1cc(F)cc2c3c(n(Cc4ccc(Cl)cc4)c12)[C@@H](CC(=O)O)CC3
Target Or Test System: Staphylococcus aureus Sa2 (MRSA, cystic fibrosis isolate)
growth reduction [%]: 99
//
Compound: COc1cccc(OC)c1-c1cc(C(=O)NC2(C(=O)O)C3CC4CC(C3)CC2C4)nn1-c1ccnc2cc(Cl)ccc12 (stereo unspecified)
Target Or Test System: Staphylococcus aureus Sa2 (MRSA, cystic fibrosis isolate)
growth reduction [%]: 100
//
Compound: CC(C)(C)[C@@H]1NC(=O)O[C@@H]2CCC[C@H]2OC/C=C/C(F)(F)c2nc3ccccc3nc2O[C@@H]2C[C@@H](C(=O)N[C@]3(C(=O)NS(=O)(=O)C4(C)CC4)C[C@H]3C(F)F)N(C2)C1=O
Target Or Test System: Staphylococcus aureus Sa2 (MRSA, cystic fibrosis isolate)
growth reduction [%]: 100
//
Compound: CN1CCN(c2ccc(C(=O)Nc3n[nH]c4ccc(Cc5cc(F)cc(F)c5)cc34)c(NC3CCOCC3)c2)CC1
Target Or Test System: Staphylococcus aureus Sa2 (MRSA, cystic fibrosis isolate)
growth reduction [%]: 96
//
Compound: Cc1cnc(NC(=O)Nc2cc(Br)c(C)cc2OC[C@@H]2CNCCO2)cn1
Target Or Test System: Staphylococcus aureus Sa2 (MRSA, cystic fibrosis isolate)
growth reduction [%]: 100
//
Compound: Cc1ccc(-n2[nH]c(C)c(N=Nc3cccc(-c4cccc(C(=O)O)c4)c3O)c2=O)cc1C
Target Or Test System: Staphylococcus aureus Sa2 (MRSA, cystic fibrosis isolate)
growth reduction [%]: 100
//
Compound: N=C(N)c1ccc(OCCCCCOc2ccc(C(=N)N)cc2)cc1 [Pentamidine (isethionate)]
Target Or Test System: Staphylococcus aureus Sa2 (MRSA, cystic fibrosis isolate)
growth reduction [%]: 100
//
Compound: Cc1ccc(C#Cc2ccc(S(=O)(=O)N[C@H](Cc3c[nH]c4ccccc34)C(=O)O)s2)cc1
Target Or Test System: Staphylococcus aureus Sa2 (MRSA, cystic fibrosis isolate)
growth reduction [%]: 100
//
Compound: Cc1c(Cl)c(C)[n+]([O-])c(Cl)c1-c1noc(-c2cc(O)c(O)c([N+](=O)[O-])c2)n1
Target Or Test System: Staphylococcus aureus Sa2 (MRSA, cystic fibrosis isolate)
growth reduction [%]: 100
//
Compound: CCCCCCCCc1ccc(CCC(N)(CO)CO)cc1
Target Or Test System: Staphylococcus aureus Sa2 (MRSA, cystic fibrosis isolate)
growth reduction [%]: 100
//
Compound: CCOc1nc2cccc(C(=O)OC(C)OC(=O)OC3CCCCC3)c2n1Cc1ccc(-c2ccccc2-c2nn[nH]n2)cc1 (stereo unspecified)
Target Or Test System: Staphylococcus aureus Sa2 (MRSA, cystic fibrosis isolate)
growth reduction [%]: 100
//
Compound: COc1cc(NC(C)CCCN)c2ncccc2c1 (stereo unspecified) [Primaquine (Diphosphate)]
Target Or Test System: Staphylococcus aureus Sa2 (MRSA, cystic fibrosis isolate)
growth reduction [%]: 94
//
Compound: C[C@H]1O[C@@H](n2cc(F)c(=O)[nH]c2=O)[C@H](O)[C@@H]1O
Target Or Test System: Staphylococcus aureus Sa2 (MRSA, cystic fibrosis isolate)
growth reduction [%]: 100
//
Compound: COc1cc(C(=O)O)ccc1NC(=O)[C@@H]1N[C@@H](CC(C)(C)C)[C@](C#N)(c2ccc(Cl)cc2F)[C@H]1c1cccc(Cl)c1F
Target Or Test System: Staphylococcus aureus Sa2 (MRSA, cystic fibrosis isolate)
growth reduction [%]: 100
//
Compound: CS(=O)(=O)c1ccc([C@@H](O)[C@@H](CF)NC(=O)C(Cl)Cl)cc1
Target Or Test System: Staphylococcus aureus Sa2 (MRSA, cystic fibrosis isolate)
growth reduction [%]: 100
//
Compound: CN(C(=O)CN(CCO)CC(=O)N(C)C(C)(C)Cc1ccccc1)C(C)(C)Cc1ccccc1
Target Or Test System: Staphylococcus aureus Sa2 (MRSA, cystic fibrosis isolate)
growth reduction [%]: 100
//
Compound: CN1CCCN=C1/C=C/c1cccs1 [Pyrantel (pamoate)]
Target Or Test System: Staphylococcus aureus Sa2 (MRSA, cystic fibrosis isolate)
growth reduction [%]: 96
//
Compound: COc1ccc2c(c1OCc1ccccc1)C[C@@H](C(=O)O)N(C(=O)C(c1ccccc1)c1ccccc1)C2
Target Or Test System: Staphylococcus aureus Sa2 (MRSA, cystic fibrosis isolate)
growth reduction [%]: 100
